System: PC-3 prostate
PROTOCOL: NCI tumour cell line growth inhibition, 48 h
I would appreciate it if you labelled entries y when TGI is 20 µM or higher, otherwise n.

Example cases with answers are listed next.
COMPOUND: Nc1cccc(Nc2nc3ccccc3nc2NS(=O)(=O)c2ccccc2)c1
CAT: y

COMPOUND: COC(=O)C1=C(C(=O)OC)SC2(S1)C1=C(CCCC1)SC(C(=O)OC)=C2C(=O)OC
CAT: n

COMPOUND: O=c1[nH]/c(=C/c2ccc(OCc3ccccc3)cn2)c(=O)[nH]/c1=C/c1ccc(O)cc1
CAT: y

COMPOUND: O=C(COc1ccc(/C=C2\CSc3ccccc3C2=O)cc1)Nc1nccs1
CAT: y

COMPOUND: CCn1c(CO)nn(-c2cc(O[C@@H](C)C(F)(F)F)c(C(=O)Nc3c(F)cccc3Cl)cc2F)c1=O
CAT: y

COMPOUND: N=C(N)SCc1cccc(-c2nc3ccccc3c(=O)o2)c1
CAT: y

Input: Evaluate C=C1C(=O)O[C@H]2[C@H]1CC/C(COC(=O)c1ccc(Cl)nc1)=C\CC[C@@]1(C)O[C@@H]21 : TGI at minimum 20 µM?
Output: y

Input: Also C=C1C(=O)O[C@H]2/C=C(/C)C3=CC(=O)[C@@](C)(C[C@@H](OC(=O)/C(C)=C\C)C12)O3 (stereo not given in full) , if possible.
Output: n

Input: Also NC(CS/C(Cl)=C/Cl)C(=O)O (stereo not given) , if possible.
Output: y
